system: rice; test: Low temperature assay on rice seedlings; type: in vivo; conditions: 0.001 mg/l, 5 °C, 9 days
QUANTITY_MEASURED: Area of leaf (cm^2)
The response must be a number in cm^2 with no trailing unit.

Returns the measured Area of leaf for the input compound. Input: CC(C)C[C@@H](O)[C@H](O)[C@@H](C)[C@H]1CCC2C3CC(=O)C4C[C@H](O)[C@H](O)C[C@]4(C)C3CC[C@@]21C (stereo partly drawn)
15.4

Returns the measured Area of leaf for the input compound. Input: CC(C)[C@H](C)[C@@H](O)[C@H](O)[C@@H](C)[C@H]1CCC2C3CC(=O)C4C[C@H](O)CC[C@]4(C)C3CC[C@@]21C (stereo partly drawn)
15.4

Returns the measured Area of leaf for the input compound. Input: CC(C)[C@H](C)[C@@H](O)[C@H](O)[C@@H](C)[C@H]1CCC2C3COC(=O)C4C[C@H](O)[C@H](O)C[C@]4(C)C3CC[C@@]21C (stereo partly drawn)
16.4

Returns the measured Area of leaf for the input compound. Input: "CC(C)(O)CC[C@@H](O)[C@](C)(O)[C@H]1CC[C@@]2(O)[C@@H]3CC(=O)[C@@H]4C[C@@H](O)[C@@H](O)C[C@]4(C)[C@H]3CC[C@]12C"
16

Returns the measured Area of leaf for the input compound. Input: C=C(C(C)C)[C@@H](O)[C@H](O)[C@@H](C)[C@H]1CCC2C3COC(=O)C4C[C@H](O)[C@H](O)C[C@]4(C)C3CC[C@@]21C (stereo partly drawn)
15.4

Returns the measured Area of leaf for the input compound. Input: CC[C@@H](C(C)C)[C@@H](O)[C@H](O)[C@@H](C)[C@H]1CCC2C3COC(=O)C4C[C@H](O)[C@H](O)C[C@]4(C)C3CC[C@@]21C (stereo partly drawn)
15.4

* * *

tested on: rice; assay: Rice leaf bending assay (leaf inclination angle); type: in vivo; conditions: 0.0001 mg/l, 48 hr
Provide the recorded Average angle for the entries that follow.
The response must be a number in degree with no trailing unit.

Returns the measured Average angle for the input molecule. Input: C=C(C(C)C)[C@@H](O)[C@H](O)[C@@H](C)[C@H]1CCC2C3COC(=O)C4C[C@H](O)[C@H](O)C[C@]4(C)C3CC[C@@]21C (stereo partly drawn) [BR3]
3.84

Returns the measured Average angle for the input molecule. Input: CC[C@@H](C(C)C)[C@@H](O)[C@H](O)[C@@H](C)[C@H]1CCC2C3COC(=O)C4C[C@H](O)[C@H](O)C[C@]4(C)C3CC[C@@]21C (stereo partly drawn) [BR2]
4.025

Returns the measured Average angle for the input molecule. Input: CC(C)(O)CC[C@@H](O)[C@](C)(O)[C@H]1CC[C@@]2(O)[C@@H]3CC(=O)[C@@H]4C[C@@H](O)[C@@H](O)C[C@]4(C)[C@H]3CC[C@]12C [BR6]
4.25

Returns the measured Average angle for the input molecule. Input: CC(C)[C@H](C)[C@@H](O)[C@H](O)[C@@H](C)[C@H]1CCC2C3CC(=O)C4C[C@H](O)CC[C@]4(C)C3CC[C@@]21C (stereo partly drawn) [BR4]
3.8

Returns the measured Average angle for the input molecule. Input: CC(C)C[C@@H](O)[C@H](O)[C@@H](C)[C@H]1CCC2C3CC(=O)C4C[C@H](O)[C@H](O)C[C@]4(C)C3CC[C@@]21C (stereo partly drawn) [BR5]
3.9

Returns the measured Average angle for the input molecule. Input: CC(C)[C@H](C)[C@@H](O)[C@H](O)[C@@H](C)[C@H]1CCC2C3COC(=O)C4C[C@H](O)[C@H](O)C[C@]4(C)C3CC[C@@]21C (stereo partly drawn) [BR1]
5.34

* * *

tested on: rice; assay: Low temperature assay on rice seedlings; type: in vivo; settings: 0.1 mg/l, 4 °C, 3 days
Provide the recorded Area of leaf for the entries that follow.
The response must be a number in cm^2 with no trailing unit.

Returns the measured Area of leaf for the input compound. Input: CC(C)[C@H](C)[C@@H](O)[C@H](O)[C@@H](C)[C@H]1CCC2C3CC(=O)C4C[C@H](O)CC[C@]4(C)C3CC[C@@]21C (stereo partly drawn)
10.6

Returns the measured Area of leaf for the input compound. Input: C=C(C(C)C)[C@@H](O)[C@H](O)[C@@H](C)[C@H]1CCC2C3COC(=O)C4C[C@H](O)[C@H](O)C[C@]4(C)C3CC[C@@]21C (stereo partly drawn)
10.8

Returns the measured Area of leaf for the input compound. Input: CC(C)[C@H](C)[C@@H](O)[C@H](O)[C@@H](C)[C@H]1CCC2C3COC(=O)C4C[C@H](O)[C@H](O)C[C@]4(C)C3CC[C@@]21C (stereo partly drawn)
10.8

Returns the measured Area of leaf for the input compound. Input: CC(C)C[C@@H](O)[C@H](O)[C@@H](C)[C@H]1CCC2C3CC(=O)C4C[C@H](O)[C@H](O)C[C@]4(C)C3CC[C@@]21C (stereo partly drawn)
10.8

Returns the measured Area of leaf for the input compound. Input: "CC(C)(O)CC[C@@H](O)[C@](C)(O)[C@H]1CC[C@@]2(O)[C@@H]3CC(=O)[C@@H]4C[C@@H](O)[C@@H](O)C[C@]4(C)[C@H]3CC[C@]12C"
10.8

Returns the measured Area of leaf for the input compound. Input: CC[C@@H](C(C)C)[C@@H](O)[C@H](O)[C@@H](C)[C@H]1CCC2C3COC(=O)C4C[C@H](O)[C@H](O)C[C@]4(C)C3CC[C@@]21C (stereo partly drawn)
10.8

* * *

Tested on: rice seed
Experiment: Salt tolerance assay: germination of rice seed under high salt environment
Assay type: in vivo
Conditions: sample 0.1 mg/l, salt 600 mg/l
From the text: According to a salt tolerance assay, we measured germination of rice seed under high salt environment to determine effects of the natural brassinolide analogues on the salt tolerance of a plant. The natural brassinolide analogues, BR1, BR2, BR3, BR4, BR5 and BR6, used herein, were those prepared by the method of Example 1. […]
Provide the recorded Germination rate for the entries that follow.
The response must be a number in % with no trailing unit.

Returns the measured Germination rate for the input compound. Input: CC[C@@H](C(C)C)[C@@H](O)[C@H](O)[C@@H](C)[C@H]1CCC2C3COC(=O)C4C[C@H](O)[C@H](O)C[C@]4(C)C3CC[C@@]21C (stereo partly shown)
38

Returns the measured Germination rate for the input compound. Input: CC(C)[C@H](C)[C@@H](O)[C@H](O)[C@@H](C)[C@H]1CCC2C3COC(=O)C4C[C@H](O)[C@H](O)C[C@]4(C)C3CC[C@@]21C (stereo partly shown)
40

Returns the measured Germination rate for the input compound. Input: C=C(C(C)C)[C@@H](O)[C@H](O)[C@@H](C)[C@H]1CCC2C3COC(=O)C4C[C@H](O)[C@H](O)C[C@]4(C)C3CC[C@@]21C (stereo partly shown)
38

Returns the measured Germination rate for the input compound. Input: CC(C)[C@H](C)[C@@H](O)[C@H](O)[C@@H](C)[C@H]1CCC2C3CC(=O)C4C[C@H](O)CC[C@]4(C)C3CC[C@@]21C (stereo partly shown)
40

* * *

Provide the recorded Weight of root for the entries that follow.
test system: rice; experiment: Low temperature assay on rice seedlings; type: in vivo; conditions: 1 mg/l, 3 °C, 3 days
The response must be a number in g with no trailing unit.

Returns the measured Weight of root for the input compound. Input: CC(C)[C@H](C)[C@@H](O)[C@H](O)[C@@H](C)[C@H]1CCC2C3CC(=O)C4C[C@H](O)CC[C@]4(C)C3CC[C@@]21C (stereo partly drawn)
2.5

Returns the measured Weight of root for the input compound. Input: "CC(C)(O)CC[C@@H](O)[C@](C)(O)[C@H]1CC[C@@]2(O)[C@@H]3CC(=O)[C@@H]4C[C@@H](O)[C@@H](O)C[C@]4(C)[C@H]3CC[C@]12C"
2.5

Returns the measured Weight of root for the input compound. Input: CC[C@@H](C(C)C)[C@@H](O)[C@H](O)[C@@H](C)[C@H]1CCC2C3COC(=O)C4C[C@H](O)[C@H](O)C[C@]4(C)C3CC[C@@]21C (stereo partly drawn)
2.5

* * *

System: rice
Experiment: Low temperature assay on rice seedlings
Type: in vivo
Settings: 0.001 mg/l, 1 °C, 9 days
Description: According to a low temperature assay, we measured parameters including plant height, number of leaf, area of leaf, number of tiller, weight of root at low temperature to completely determine effects of the natural brassinolide analogues on the resistance to low temperature of a plant. The natural brassinolide analogues, BR1, BR2, BR3, BR4, BR5 and BR6, used herein, were those prepared by the method of Example 1. […]
QUANTITY_MEASURED: Weight of root (g)
The response must be a number in g with no trailing unit.

Returns the measured Weight of root for the input compound. Input: CC[C@@H](C(C)C)[C@@H](O)[C@H](O)[C@@H](C)[C@H]1CCC2C3COC(=O)C4C[C@H](O)[C@H](O)C[C@]4(C)C3CC[C@@]21C (stereo partly drawn)
3.4

Returns the measured Weight of root for the input compound. Input: "CC(C)(O)CC[C@@H](O)[C@](C)(O)[C@H]1CC[C@@]2(O)[C@@H]3CC(=O)[C@@H]4C[C@@H](O)[C@@H](O)C[C@]4(C)[C@H]3CC[C@]12C"
3.4

Returns the measured Weight of root for the input compound. Input: C=C(C(C)C)[C@@H](O)[C@H](O)[C@@H](C)[C@H]1CCC2C3COC(=O)C4C[C@H](O)[C@H](O)C[C@]4(C)C3CC[C@@]21C (stereo partly drawn)
3.2

The reported numbers originate from patent US9326506B2.
